target: Gal(b1-4)GlcNAc(b1-2)[Gal(b1-4)GlcNAc(b1-4)]Man(a1-3)[Gal(b1-4)GlcNAc(b1-2)Man(a1-6)]Man(b1-4)GlcNAc(b1-4)GlcNAc; test: glycan array binding signal (z-score within array); higher = stronger binding; details: glycan notation: IUPAC condensed, linker removed
The sample as a whole holds a higher share of the strongest signals than the screen did.
VALUE KIND: glycan array binding signal (z-score)
Answers are plain numbers.

Problem: Form field: reported glycan array binding signal (z-score) of Pwp3 (Candida glabrata) (protein) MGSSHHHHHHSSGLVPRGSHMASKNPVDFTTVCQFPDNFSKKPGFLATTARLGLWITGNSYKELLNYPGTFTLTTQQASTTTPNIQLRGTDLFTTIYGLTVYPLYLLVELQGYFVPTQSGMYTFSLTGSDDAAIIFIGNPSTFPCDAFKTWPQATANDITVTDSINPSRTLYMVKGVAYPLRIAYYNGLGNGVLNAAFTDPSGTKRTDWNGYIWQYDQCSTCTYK
Result: -1.19
